Please go through the items and note down their Percent Effect.
test system: Wolbachia pipientis; assay: Anti-Wolbachia Cell-Based Screen; format: functional; set-up: scale not given: in the data most compounds retested in dose-response had high values; settings: 5 µM
Screen size: about 48,000 compounds; about 13,000 (27%) showed an effect of 50% or more. The list shows a part of the results.
Use % as the unit, but write only the number.

Lookup: # returns recorded Percent Effect (system: Wolbachia pipientis) for Cc1cc2n(n1)CC(CNC1CCN(Cc3ccncc3)CC1)CN2 (stereo unspecified)
Found: 3.296

Lookup: Lab note: need Percent Effect for `N#CC1(C(=O)N2CCC(Nc3cccnn3)CC2)CCCCC1` on Wolbachia pipientis, anyone have it?
Found: -1.01

Lookup: Value wanted: Percent Effect (Wolbachia pipientis) of entry `Cn1nnc2cc(C(=O)N3CCC(Nc4cccnn4)CC3)ccc21`
Found: 108.7

Lookup: API: value(readout=Percent Effect, system=Wolbachia pipientis) for record `Cc1nc(C(=O)N2CCC(Nc3cccnn3)CC2)cs1`
Found: -1.209

Lookup: For the record `Cc1nn(C)c(C)c1CC(=O)N1CCC(Nc2cccnn2)CC1` , what value of Percent Effect is listed for Wolbachia pipientis?
Found: -9.502

Lookup: // lookup Percent Effect | system=Wolbachia pipientis | key= `CC(C)c1nnc(CN2CCC3(CC2)Nc2ccccc2NC3=O)o1`
Found: 8.635
